System: 817829-284-R-J1-PDC complex spheroid viability;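 also: spheroids exposed to compounds for 7 days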
procedureDetails: Anticancer human tumor 817829-284-R-J1-PDC patient-derived colon adenocarcinoma cell line growth inhibition [POLQ]; active = viability on the fitted dose curve at most 10% of control; inactive = the rest
testContext: second compound 0.0316 µM; first compound 3.16 µM
Give one outcome, nothing more. List: yes (active), no (inactive)

Please review the entries below; each comes with its answer.
{"compound": "C=CC(=O)N1CCN(c2nc(=O)n(-c3c(C)ccnc3C(C)C)c3nc(-c4c(O)cccc4F)c(F)cc23)C(C)C1 (stereo not drawn) + Cc1cccc(N(C)C(=O)C2C(O)CCN2c2nc(C)cc(C(F)(F)F)c2C#N)c1", "class": "no"}
{"compound": "CC1COCCN1c1cc(C2(S(C)(=N)=O)CC2)nc(-c2ccnc3[nH]ccc23)n1 (stereo not drawn) + COC1C(OC(N)=O)C(O)C(Oc2ccc3c(O)c(NC(=O)c4ccc(O)c(CC=C(C)C)c4)c(=O)oc3c2C)OC1(C)C", "class": "yes"}

# next compound below
Query block: Please share the test call associated with COc1cc2cc(C(=O)CCC(=O)O)sc2cc1OC + Nc1ccc(C#CCN(C(=O)Cc2ncc(C(F)(F)F)cc2C(F)(F)F)c2ccc(F)cc2)nn1 .
Result block: no
